What pIC50 was measured for each of the following?
Biological target: BuChE (Equus caballus, UniProt P81908)
Sequence (P81908 whole entry): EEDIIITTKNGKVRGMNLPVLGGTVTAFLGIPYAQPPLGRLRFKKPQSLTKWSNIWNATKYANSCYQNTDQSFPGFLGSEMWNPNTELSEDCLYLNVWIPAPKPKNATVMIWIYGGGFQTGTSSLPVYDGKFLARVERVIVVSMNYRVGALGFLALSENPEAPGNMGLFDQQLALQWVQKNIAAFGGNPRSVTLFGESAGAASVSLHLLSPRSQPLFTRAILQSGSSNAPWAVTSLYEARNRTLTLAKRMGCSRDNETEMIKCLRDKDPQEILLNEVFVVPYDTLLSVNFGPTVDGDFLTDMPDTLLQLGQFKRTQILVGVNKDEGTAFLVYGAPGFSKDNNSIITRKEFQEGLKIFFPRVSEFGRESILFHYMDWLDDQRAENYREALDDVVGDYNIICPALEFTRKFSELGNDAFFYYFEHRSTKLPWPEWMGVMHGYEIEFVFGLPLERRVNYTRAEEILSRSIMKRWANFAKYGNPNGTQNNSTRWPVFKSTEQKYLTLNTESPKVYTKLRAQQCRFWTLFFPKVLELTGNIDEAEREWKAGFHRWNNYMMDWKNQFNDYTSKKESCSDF
Experiment: Ellman assay
Type: biochemical
Answers are plain numbers, as −log10 of the molar value.

{"Structure": "O=C(NCCc1c[nH]c2ccc(O)cc12)Nc1cccc2cccnc12", "Assay target": "BuChE (Equus caballus, UniProt P81908)", "pIC50": 5.06}

Each molecule below has a recorded value; state its pIC50.
1. CCN(C)C(=O)Oc1ccc2[nH]cc(CCNC(=O)Nc3cccc4cccnc34)c2c1
2. O=C(NCCc1c[nH]c2ccccc12)Nc1cccc2cccnc12
3. CCN(C)C(=O)Oc1ccc2[nH]cc(CCNc3cccc4cccnc34)c2c1
4. c1cnc2c(NCCc3c[nH]c4ccccc34)cccc2c1
5. COc1ccc2[nH]cc(CCNc3cccc4cccnc34)c2c1
6. CCN(C)C(=O)Oc1ccc2[nH]cc(CCNC(=O)CNc3cccc4cccnc34)c2c1
7. CN(C)C(=O)Oc1ccc2[nH]cc(CCNC(=O)Nc3cccc4cccnc34)c2c1
8. CN(C)C(=O)Oc1ccc2[nH]cc(CCNc3cccc4cccnc34)c2c1

Response:
5.59
4.99
5.96
4.87
5.35
6.10
5.48
6.05

Below are some molecules; for each one, tell me its pIC50.
1. CN(C)C(=O)Oc1ccc2[nH]cc(CCNC(=O)CNc3cccc4cccnc34)c2c1
2. Oc1ccc2[nH]cc(CCNc3cccc4cccnc34)c2c1

Response:
[6.05, 5.37]

###

Biological target: AChE (Electrophorus electricus, UniProt O42275)
Sequence (O42275 24-633): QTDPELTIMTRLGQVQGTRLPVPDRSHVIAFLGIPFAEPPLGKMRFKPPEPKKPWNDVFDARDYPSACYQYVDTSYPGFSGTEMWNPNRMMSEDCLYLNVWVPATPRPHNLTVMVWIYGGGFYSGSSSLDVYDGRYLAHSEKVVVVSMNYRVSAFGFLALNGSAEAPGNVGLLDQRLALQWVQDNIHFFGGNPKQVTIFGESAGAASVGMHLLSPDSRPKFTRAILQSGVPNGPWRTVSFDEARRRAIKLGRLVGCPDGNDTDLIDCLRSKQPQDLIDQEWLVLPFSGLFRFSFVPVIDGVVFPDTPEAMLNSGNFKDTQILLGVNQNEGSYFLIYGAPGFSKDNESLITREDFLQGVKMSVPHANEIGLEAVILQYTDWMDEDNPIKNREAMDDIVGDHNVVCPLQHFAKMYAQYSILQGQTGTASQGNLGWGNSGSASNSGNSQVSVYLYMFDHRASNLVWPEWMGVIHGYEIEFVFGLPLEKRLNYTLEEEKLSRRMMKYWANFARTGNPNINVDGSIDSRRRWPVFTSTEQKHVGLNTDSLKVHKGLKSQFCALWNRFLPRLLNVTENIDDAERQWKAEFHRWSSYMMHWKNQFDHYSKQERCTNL
Attribute measured: IC50 (µM)
One number for each entry, in µM.

Sample records with IC50:
{"Structure": "CCN(C)C(=O)Oc1ccc2[nH]cc(CCNc3cccc4cccnc34)c2c1", "Observed": 25.1}
{"Structure": "COc1ccc2[nH]cc(CCNC(=O)CNc3cccc4cccnc34)c2c1", "Observed": 13}
{"Structure": "CCN(C)C(=O)Oc1ccc2[nH]cc(CCNC(=O)CNc3cccc4cccnc34)c2c1", "Observed": 13.7}

// for each compound in input: emit IC50
1. O=C(NCCc1c[nH]c2ccc(O)cc12)Nc1cccc2cccnc12
2. c1cnc2c(NCCc3c[nH]c4ccccc34)cccc2c1
3. O=C(CNc1cccc2cccnc12)NCCc1c[nH]c2ccc(O)cc12
4. CN(C)C(=O)Oc1ccc2[nH]cc(CCNC(=O)CNc3cccc4cccnc34)c2c1
5. COc1ccc2[nH]cc(CCNC(=O)Nc3cccc4cccnc34)c2c1

Response:
1. 36.3
2. 32.7
3. 4.34
4. 11.2
5. 29.2

Consider the following items and state reported IC50 for each.
1. CN(C)C(=O)Oc1ccc2[nH]cc(CCNC(=O)Nc3cccc4cccnc34)c2c1
2. O=C(CNc1cccc2cccnc12)NCCc1c[nH]c2ccccc12

Response:
[35.6, 11.2]
